For each record, write down the corresponding pIC50.
- Tested On: HIV protease (Human immunodeficiency virus type 1 group M subtype B)
- Construct: measurement of HIV-protease (HIV-PR) activity
- Test: biochemical
- Measurement Context: fluorogenic peptide substrate, 37° C., pH 4.7; read-out: Apparent Enzyme IC50
- Procedure: Compositions to be subjected to enzyme assay are lyophilited and diluted in DMSO to 100-1000 μM. Compositions having apparent IC50 <1 μm are diluted to 100 μM. […] 2. Dispense the substrate solution into UV-pass fluorescence cuvettes (1 cm pathlength). […] 5. Measure the initial rate of cleavage of fluorogenic substrate by monitoring the increase in fluorescence signal at 490 nm for 5-8 min at 37° C. […]
pIC50: −log10 of the molar value.

Documented pIC50 of [O-][S+]1[C@H](Cc2ccccc2)[C@H](OCc2ccccc2)[C@H](O)[C@@H](O)[C@@H](OCc2ccccc2)[C@H]1Cc1ccccc1 (stereo partly drawn) [108/4] : > 5.70

Documented pIC50 of `O=S1(=O)[C@H](Cc2ccccc2)[C@H](OCc2cccc(O)c2)[C@H](O)[C@@H](O)[C@@H](OCc2cccc(O)c2)[C@H]1Cc1ccccc1` : > 5.70

Documented pIC50 of `N#Cc1ccccc1O[C@@H]1[C@H](O)[C@@H](O)[C@@H](Oc2ccccc2C#N)CS(=O)(=O)[C@@H]1Cc1ccccc1` : 5.00 to 5.70

Documented pIC50 of `[O-][S@+]1C[C@H](OCc2ccccc2)[C@H](O)[C@@H](O)[C@@H](OCc2ccccc2)[C@H]1Cc1ccccc1` : 5.00 to 5.70

Documented pIC50 of `O=S1(=O)[C@H](Cc2ccccc2)[C@H](OCc2ccccc2)[C@H](O)[C@@H](O)[C@H](OCc2ccccc2)[C@H]1Cc1ccccc1` : > 5.70

Documented pIC50 of `Cc1nc(CO[C@@H]2[C@H](O)[C@@H](O)[C@@H](OCc3csc(C)n3)[C@@H](Cc3ccccc3)S(=O)(=O)[C@@H]2Cc2ccccc2)cs1` : > 5.70
